# assay info: Pharmacokinetics of AUY922 and its glucuronide metabolite BJP762 in blood (LC-MS/MS, non-compartmental)
# Format: in vivo, human (Japanese patients with advanced solid tumors)
# cond: human, whole blood, iv, 54 mg/m2; read-out: Vz
observable: Vd (L)

INSERT INTO measurements (input_smiles, recorded_number) VALUES
  ('CCNC(=O)c1noc(-c2cc(C(C)C)c(O)cc2O)c1-c1ccc(CN2CCOCC2)cc1', 1190);

----------
# assay info: Pharmacokinetics of AUY922 and its glucuronide metabolite BJP762 in blood (LC-MS/MS, non-compartmental)
# Format: in vivo, human (Japanese patients with advanced solid tumors)
# cond: human, whole blood, iv, 28 mg/m2
observable: clearance (mL/min)

INSERT INTO measurements (input_smiles, recorded_number) VALUES
  ('CCNC(=O)c1noc(-c2cc(C(C)C)c(O)cc2O)c1-c1ccc(CN2CCOCC2)cc1', 79.8);
